B1: ZNF232 (parent)
chain: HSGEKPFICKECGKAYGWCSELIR

# Variants of: B1
# method_summary: protein stability index of a GFP-peptide fusion (GPS, HEK-293T) (PSI 1-6); higher = more stable;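 further: lentivirally expressed fusions sorted by FACS into six bins by GFP to DsRed ratio, PSI derived from sequencing read proportions per bin multiplied by bin number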
# reported_conditions: c terminus: a fixed tail appended
attribute_measured: protein stability index
Quick one: just the number, no unit, thanks!

Use the examples below as a reference point.
sequence_variant	attribute_measured	data_value
H1E	protein stability index	2.4
H1M	protein stability index	1.16
R24G	protein stability index	1.45
W18Y	protein stability index	1.79
Y16L	protein stability index	1.25

Sample "C9K" — what was its protein stability index?
2.09

Also, "K14S" please.
1.7

Similarly, "K5A" ?
2.1

Param item: "K14R"
1.61

One more variant: "E11G"
2.19
